experiment: qHTS assay to identify small molecule antagonists of the progesterone receptor (PR) signaling pathway - cell viability counter screen (AID 1346798); settings: PR-UAS-bla HEK293T viability, CellTiter-Glo luminescence, 16 h; series mostly up to 92.4 µM;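 also: HEK293T PR-UAS-bla cells stimulated with the agonist R5020; nearly all actives have a fitted effect of over 50% in size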
Results filed as inconclusive are left out. Active and inactive are the calls of the source. Calls follow the shape of the dose curve; as a rule, active = well fitted cell-killing curve with a large enough effect in the repeat runs; inconclusive = weak or mixed curves, or effect the other way; inactive = no such curve, though single readings can be large or run the other way.
Entry note: the call must match one of 1 (active), -1 (inactive)

Ask | Entry CCOC(=O)C(C)Oc1ccc(Oc2nc3ccc(Cl)cc3o2)cc1 (stereo unspecified) : call = ?
Reply | -1

Ask | Fill in: this test's call for NC(=O)Nc1ccc(Cl)c(Cl)c1 is ___
Reply | -1

For the next question, use this compound.
Ask | Answer briefly: the call reported for Nc1c(I)cc(I)c(C(=O)N(CCC(=O)O)c2ccccc2)c1I in this assay.
Reply | -1
